// provenance: the supplement of paper PMC9112550

- System: Escherichia coli TOP10;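 note: peptides expressed intracellularly from a pBAD plasmid library in pooled LB shake-flask culture, induced with 0.3% L-arabinose, DNA abundance read by NGS, three biological replicates, DESeq2 with apeglm shrinkage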
- test-summary: shrunken log2 fold change of peptide-encoding DNA abundance (4.5 h post-induction vs induction); higher = less antimicrobial activity (less host growth inhibition)
- condition-info: time post-induction: 4.5 h; library: site-saturation at positions 5, 18, 19, 20
Please use the following shrunken log2 fold change ranges when assigning a class: low range: < -0.2; mid range: ≥ -0.2 and < 0.09; high range: ≥ 0.09

See these solved cases before continuing.
RRIRWRPPRLPRPRPRPQQNPRP ... mid range
RRIRMRPPRLPRPRPRPQLTPRP ... high range
RRIRIRPPRLPRPRPRPYKDPRP ... low range

Exercise: Field: class (shrunken log2 fold change) — entry: "RRIRFRPPRLPRPRPRPNARPRP"
Key: high range

Exercise: Field: class (shrunken log2 fold change) — entry: "RRIRYRPPRLPRPRPRPDMLPRP"
Key: mid range

Exercise: Field: class (shrunken log2 fold change) — entry: "RRIRNRPPRLPRPRPRPWAIPRP"
Key: mid range

Exercise: Field: class (shrunken log2 fold change) — entry: "RRIRERPPRLPRPRPRPNTHPRP"
Key: low range

Exercise: Field: class (shrunken log2 fold change) — entry: "RRIRNRPPRLPRPRPRPSAKPRP"
Key: mid range

Exercise: Field: class (shrunken log2 fold change) — entry: "RRIRGRPPRLPRPRPRPGGHPRP"
Key: high range
